molecular target: Bcl-xL (Homo sapiens, UniProt Q07817); test: TR-FRET Bcl-xL binding assay (competition with probe F-Bak); settings: without human serum, read-out: Bcl-xL Binding Ki
Sequence (Q07817 whole entry): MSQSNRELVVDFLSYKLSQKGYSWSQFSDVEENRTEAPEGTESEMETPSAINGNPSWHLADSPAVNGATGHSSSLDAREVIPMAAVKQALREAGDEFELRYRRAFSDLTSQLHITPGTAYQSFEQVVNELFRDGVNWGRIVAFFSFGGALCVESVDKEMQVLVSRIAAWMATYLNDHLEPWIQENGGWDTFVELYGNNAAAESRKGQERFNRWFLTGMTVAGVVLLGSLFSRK
pKi: −log10 of the molar value.
Measured pKi, listed per entry for reference.

SAMPLE SMILES	pKi
Cc1c(-c2ccc(-c3cc4cccc(C(=O)Nc5nc6ccccc6s5)c4[nH]3)nc2C(=O)O)cnn1CC12CC3(C)CC(C)(C1)CC(OCCN)(C3)C2	> 11.00
Cc1c(-c2ccc(N3CCc4cccc(C(=O)Nc5nc6ccccc6s5)c4C3)nc2C(=O)O)cnn1CC12CC3(C)CC(C)(C1)CC(OCCNC1COC1)(C3)C2	> 12.00
CNCCOC12CC3(C)CC(C)(CC(Cn4ncc(-c5ccc(-c6cnc7cccc(C(=O)Nc8nc9ccccc9s8)c7c6)nc5C(=O)O)c4C)(C3)C1)C2	> 12.00
CNCCOC12CC3(C)CC(C)(CC(Cn4ncc(-c5ccc(-c6ccc7cccc(C(=O)Nc8nc9cccnc9s8)c7c6)nc5C(=O)O)c4C)(C3)C1)C2	> 12.00
Cc1c(-c2ccc(N3CCn4c(C(F)(F)F)nc(C(=O)Nc5nc6ccccc6s5)c4C3)nc2C(=O)O)cnn1CC12CC3(C)CC(C)(C1)CC(OCCN)(C3)C2	> 11.00
CNCCOC12CC3(C)CC(C)(CC(Cn4ncc(-c5ccc(-c6ccc7c(c6)N(C(=O)Nc6nc8ccccc8s6)CCO7)nc5C(=O)O)c4C)(C3)C1)C2	> 12.00
